Every entry's value here was drawn from patent US20240239755A1.

Exercise: state measured herbicidal effect MATIN for each of the molecules provided.
Test system: Matricaria inodora (MATIN)
Assay: Herbicidal post-emergence action, 320 g/ha, MATIN
Type: in vivo
Settings: visual grading after ca. 3 weeks
Excerpt: Seeds of mono- and dicotyledonous weed plants were sown in plastic pots (double sowings with one species of mono- and one species of dicotyledonous weed plants per pot), in sandy loam, covered with soil and grown under controlled growth conditions. 2 to 3 weeks after sowing, the test plants were sprayed in the single-leaf stage. […]
Express the result in % but write the number alone.

Reported herbicidal effect MATIN for CCOC(=O)Oc1c(C)nn(C)c(=O)c1Oc1cc(F)c(F)cc1Br [Example I-093] : what is it?
90

Form field: reported herbicidal effect MATIN of Cc1nn(C)c(=O)c(Oc2cc(F)c(F)cc2Br)c1O [Example I-087]
90

Report herbicidal effect MATIN for Cc1nn(C)c(=O)c(Oc2cc(F)ccc2C2CC2)c1O [Example I-046] please.
90

Form field: reported herbicidal effect MATIN of Cc1nn(C)c(=O)c(Oc2cc(F)c(F)cc2Br)c1OC(=O)C(C)C [Example I-094]
90

Field request: herbicidal effect MATIN | item: Cc1nn(C)c(=O)c(Oc2cc(F)ccc2Br)c1O [Example I-026]
90

// query herbicidal effect MATIN value for entry CCOC(=O)Oc1c(C)nn(C)c(=O)c1Oc1ccccc1OC(F)(F)F [Example I-013]
90

What measured herbicidal effect MATIN goes with Cc1nn(C)c(=O)c(Oc2ccccc2C2CC2)c1O [Example I-014] ?
90

Can you share its herbicidal effect MATIN? I mean this molecule: CC(=O)Oc1c(C)nn(C)c(=O)c1Oc1ccccc1OC(F)F [Example I-081]
90

Quick check: herbicidal effect MATIN of Cc1nn(C)c(=O)c(Oc2cc(Cl)ccc2Cl)c1O [Example I-016] ?
90
